system: HCI01 (cells of a triple-negative basal-like breast cancer xenograft); assay: cell viability (% of vehicle); higher = less cytotoxic; conditions: 10 µM; 72 h;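 note: PDX cells carrying CMV promoter-driven luciferase, viability read as total photon flux per second by IVIS imaging following D-luciferin, vehicle control 0.1% DMSO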
Param label: returns MET when cell viability < 100, returns NOT MET otherwise, including exact equality.

| compound | discrete-label |
| --- | --- |
| CCNCC.O=S(=O)(O)c1cc(O)ccc1O [Ethamsylate] | NOT MET |
| CN1C(=O)CCS(=O)(=O)C1c1ccc(Cl)cc1 (stereo not drawn) [Chlormezanone] | MET |
| NCCC(O)(P(=O)([O-])O)P(=O)([O-])O.[Na+].[Na+] [Pamidronate Disodium] | MET |
| CCN(C)C(=O)Oc1cccc(C(C)N(C)C)c1.O=C(O)C(O)C(O)C(=O)O (stereo not drawn) [Rivastigmine Tartrate] | NOT MET |
| O=c1[nH]c2ccccc2n1CCCN1CCC(n2c(=O)[nH]c3cc(Cl)ccc32)CC1 [Domperidone] | NOT MET |
| Nc1nc(N)nc(NC2CC2)n1 [Cyromazine] | NOT MET |
| CN(C)C1C(=O)C(C(N)=O)=C(O)C2(O)C(=O)C3=C(O)c4c(O)cccc4C(C)(O)C3CC12.Cl (stereo not drawn) [Tetracycline Hydrochloride] | NOT MET |
| Cc1cc(C(C#N)c2ccc(Cl)cc2)c(Cl)cc1NC(=O)c1cc(I)cc(I)c1O (stereo not drawn) [Closantel] | MET |
| O=P1(N(CCCl)CCCl)NCCCO1 (stereo not drawn) [Cyclophosphamide] | NOT MET |
| C[N+](C)(C)CCCCCCCCCC[N+](C)(C)C.[Br-].[Br-] [Decamethonium Bromide] | NOT MET |
| Cc1cc(C(C#N)c2ccc(Cl)cc2)c(Cl)cc1NC(=O)c1cc(I)cc(I)c1[O-].[Na+] (stereo not drawn) [Closantel Sodium] | MET |
| CN(C)C1C(=O)C(C(N)=O)=C(O)C2(O)C(=O)C3=C(O)c4c(O)cccc4C(C)(O)C3C(O)C12.O.O (stereo not drawn) [Oxytetracycline Dihydrate] | MET |
| Cl.NCC1(CC(=O)O)CCCCC1 [Gabapentin HCl] | NOT MET |
| O=C1CCC2(O)C3Cc4ccc(O)c5c4C2(CCN3CC2CC2)C1O5 (stereo not drawn) [Naltrexone] | NOT MET |
| CCC[C@H](C)[C@@]1(CC)C(=O)N=C([O-])NC1=O.[Na+] [Pentobarbital sodium salt] | MET |
| Cc1cccc(C(C)c2cnc[nH]2)c1C.Cl (stereo not drawn) [Medetomidine HCl] | NOT MET |
| CC(O)(CS(=O)(=O)c1ccc(F)cc1)C(=O)Nc1ccc(C#N)c(C(F)(F)F)c1 (stereo not drawn) [Bicalutamide] | NOT MET |
| CC1C=CC=CCCC=CC=CC=CC=CC(OC2OC(C)C(O)C(N)C2O)CC2OC(O)(CC(O)C(O)CCC(O)CC(O)CC(O)CC(=O)OC(C)C(C)C1O)CC(O)C2C(=O)O (stereo not drawn) [Nystatin (Fungicidin)] | NOT MET |
| Cc1cccc(C)c1NC1=NCCCS1.Cl [Xylazine HCl] | NOT MET |
| CCC1(C)CC(=O)NC(=O)C1 [Bemegride] | NOT MET |
| Cc1cc(O)ccc1Cl [Chlorocresol] | NOT MET |
| Cl.O=C1CCC2(O)C3Cc4ccc(O)c5c4C2(CCN3CC2CC2)C1O5 (stereo not drawn) [Naltrexone HCl] | NOT MET |
| CCC1=C[C@H]2CN3CCc4c([nH]c5ccccc45)[C@@](C(=O)OC)(C2)[C@@H]13 [Catharanthine] | MET |
| CCOC(=O)c1cncn1C(C)c1ccccc1 (stereo not drawn) [Etomidate] | NOT MET |
